Recorded pIC50 for compounds tested on TGF-beta receptor type-1 (Homo sapiens), drawn from a number of studies.
pIC50: −log10 of the molar value.

Past entries and their recorded results:
{"columns": ["smiles.notation", "result"],
 "data": [
  ["C[C@@H]1CCCN1Cc1ccc(-c2cnc(N)c(C(=O)N[C@H]3CC[C@](C)(O)CC3)c2)c(F)c1F", 5.00],
  ["CC(C)(C)OC(=O)NCC(=O)Nc1cc(Nc2cc(-c3cc(Cl)ccc3F)nc3ncccc23)ncn1", "> 7.00"],
  ["Cc1cccc(-c2ccccc2-c2ccc3nnc(C(N)=O)n3c2)n1", 5.32],
  ["Cc1cccc(-c2nc(CNCC3CC3)[nH]c2-c2ccc3ncnn3c2)n1", "5.00 to 6.00"],
  ["Cc1cccc(-c2ccc(OCc3ccccc3F)cc2-c2ccc3ncc(C(N)=O)n3c2)n1", 7.89]
]}

Lab note: need pIC50 for C[C@@H](O)CNC(=O)c1cnccc1Nc1cc(-c2cc(Cl)ccc2F)c(=O)n2c1N(C)CC2 on TGF-beta receptor type-1 (Homo sapiens), anyone have it?
< 5.30

Recorded pIC50 for CN1CCC(n2cc(-c3cncc(-c4ccnc(-c5cc(C(F)(F)F)ccc5F)c4)c3)cn2)CC1 with TGF-beta receptor type-1 (Homo sapiens), please?
> 6.00

Provide value of pIC50 for this record tested with TGF-beta receptor type-1 (Homo sapiens): CCC(CC)n1cc(-c2cncc(-c3ccc4c(c3)CC(=O)N4C)c2)ccc1=O
< 5.00

TGF-beta receptor type-1 (Homo sapiens) / pIC50 / Cn1ccc(-c2ccccc2-c2ccc3ncc(C(N)=O)n3c2)n1 : value?
6.90

Record C[C@H](c1ccc(-c2cnc(N)c(C(=O)N[C@H]3CC[C@H](O)CC3)c2)cc1)N1CC2(COC2)C1 : what is its pIC50 with TGF-beta receptor type-1 (Homo sapiens)?
5.67

Under TGF-beta receptor type-1 (Homo sapiens): pIC50 value of O=c1cc(-c2cc(-c3cc(Cl)ccc3F)nc3ncccc23)c2ccncc2n1CCN1CCOCC1 ?
5.00 to 6.00

Could you share what pIC50 was measured for CN(C)CC(=O)Nc1nccc2c(-c3cc(-c4ccccc4F)nc4ncccc34)nccc12 , tested on TGF-beta receptor type-1 (Homo sapiens)?
5.00 to 6.00

API: value(readout= pIC50, system= TGF-beta receptor type-1 (Homo sapiens), query= Nc1nccc2c(-c3cc(-c4c(F)cccc4F)nc4ncccc34)nccc12 )
> 6.00

Please provide the recorded pIC50 for NC(=O)c1cnccc1Nc1cc(-c2cc(Cl)ccc2F)c(=O)[nH]c1C1CC1 , tested on TGF-beta receptor type-1 (Homo sapiens).
≥ 6.30

Request - read-out pIC50 | tested on TGF-beta receptor type-1 (Homo sapiens) | compound Cc1cccc2c(Nc3ccnc(Nc4cccc(S(N)(=O)=O)c4)n3)cnnc12
> 8.00

State its pIC50 on TGF-beta receptor type-1 (Homo sapiens): CC(C)(O)c1cc(Nc2cc(Oc3cc(C(F)(F)F)nn3CC3CC3)ccn2)ccn1
7.32

Query for TGF-beta receptor type-1 (Homo sapiens): what pIC50 does the record show for N#CCCOc1nc(-c2cccc(Cl)c2)c2c(N)c(C(N)=O)sc2n1 ?
> 7.00
